- Test system: HL-60(TB) leukemia
- protocol.details: NCI-60 one-dose screen, 48 h
- assay.conditions: 10 µM unless noted
About 83,000 compounds went through this panel and 20% of them were active in at least one assay; those are over-represented in the sample as a whole. Active and inactive are the calls of the source. How the source made its calls: active means growth percent below 10; inactive means the rest.
# valid calls are 1 (yes) for active, 0 (no) for inactive; nothing else

Consider the worked cases shown below.
Asked: What is the recorded call for this compound in the test? COc1ccccc1[C@H]1C(C(=O)c2ccc(Cl)cc2)C2(N[C@@H]1c1ccccc1)C(=O)Nc1ccccc12 (stereo not given in full)
Given back: 1 (yes)

Asked: Next entry: N/C(=N\c1nc2ccccc2s1)NC(=O)NCCCCCCO
Given back: 0 (no)

Further cases:
Asked: What is the recorded call for this compound in the test? COc1ccc([C@H]2C(C(=O)c3ccc(Cl)cc3)C3(N[C@@H]2c2ccccc2)C(=O)Nc2ccc(Br)cc23)cc1 (stereo not given in full)
Given back: 0 (no)

Asked: Next entry: O=C(NO)c1ccc(CNc2nc(-c3ccccc3)c3ccccc3n2)cc1
Given back: 1 (yes)

Asked: Next entry: Cc1occc1C(=O)NN1C(=O)/C(=C/C=C/c2ccc([N+](=O)[O-])o2)SC1=S
Given back: 1 (yes)

Asked: Next entry: O=C(N/N=C/c1ccc(B(O)O)s1)c1[nH]c2ccc(Br)cc2c1-c1ccccc1
Given back: 1 (yes)

Asked: Next entry: CCN(CC)c1ccc(/C=N/Nc2nc(-c3ccc(C)cc3)cs2)c(O)c1
Given back: 0 (no)

Asked: Next entry: CCOC(=O)COc1c(OC)c(OC)cc2oc(-c3cccc(C(=O)Nc4ccc(Cl)cc4)c3)cc(=O)c12
Given back: 0 (no)

Asked: Next entry: COc1ccc(-c2ccnc(SCc3cc4ccccc4[nH]c3=O)n2)cc1OC
Given back: 0 (no)

Asked: Next entry: Clc1ccc(CNc2nc(SCCN3CCOCC3)nc3c2cnn3CC(Cl)c2ccc(Br)cc2)cc1 (stereo not given)
Given back: 1 (yes)

Asked: Next entry: NS(=O)(=O)c1ccc(NNC(=O)CCC(=O)c2ccccc2)cc1
Given back: 0 (no)

Asked: Next entry: COc1ccc(CCC2NCCc3c(Br)c4c(c(OC)c32)OCO4)cc1 (stereo not given)
Given back: 1 (yes)

Asked: Next entry: CC1(C)CC[C@]2(C(=O)Nc3ccccc3)CC[C@]3(C)C(=CCC4[C@@]5(C)C[C@@H](O)[C@H](O)[C@@](C)(CO)C5CC[C@]43C)C2C1 (stereo not given in full)
Given back: 0 (no)

Asked: Next entry: COc1ccc(-c2nc3ccc(C(=O)NN4C(=O)c5ccc([N+](=O)[O-])cc5C4=O)cc3[nH]2)cc1
Given back: 0 (no)

Asked: Next entry: Cc1ccc2nc(NC(=O)Nc3cccc(Cl)c3)sc2c1
Given back: 0 (no)

Asked: Next entry: CC1=C(C(=O)OC(C)C)C(c2ccc(O)cc2)NC(=O)N1 (stereo not given)
Given back: 0 (no)

Asked: Next entry: CC1=C(C)C(=O)C(N2CCSCC2)=CC1=O
Given back: 0 (no)

Asked: Next entry: O=C(Nc1cc(Cl)cc(Cl)c1)Nc1cc(Cl)cc(Cl)c1
Given back: 1 (yes)

Asked: Next entry: CC12CC[C@@H]3[C@]4(C)COC(c5cn[nH]c5-c5ccc(Br)cc5)O[C@@H]4CC[C@@]3(C)[C@@H]1CC(C1=CCOC1=O)O2 (stereo not given in full)
Given back: 0 (no)

Asked: Next entry: CN1CCN(CCS(=O)(=O)Nc2cc(-c3ccc4ncnc(Nc5ccc(F)c(Cl)c5)c4c3)cnc2Cl)CC1
Given back: 0 (no)

Where do the numbers come from? From PubChem BioAssay (NCI).
